# TEST: MTT cell toxicity assay
# Format: cell-based
# CONDITION DESCRIPTION: human, HeLa cells
PROPERTY MEASURED: IC50 at 48 h

input: So what's the measured IC50 at 48 h for this one? `NS(=O)(=O)NCCNc1nonc1C(=NO)Nc1ccc(F)c(Br)c1`
output: > 40 µM
